For each entry below, report its melting point value.

Here are 3 compounds together with their reported answers.
[[record]]
compound = "O=C1NN=C(COc2cccc(Cl)c2)C1=Cc1ccc[nH]1"
resulttype = "melting point"
reading = "165 to 167 °C"

[[record]]
compound = "O=C1NN=C(CCc2ccc(O)cc2)C1=Cc1cn(CCCCO)c2ncccc12"
resulttype = "melting point"
reading = "211 to 212 °C"

[[record]]
compound = "O=C1NN=C(COc2ccccc2)C1=Cc1c[nH]c2ccccc12"
resulttype = "melting point"
reading = "284 to 286 °C"


For each entry beneath this line, provide reported melting point.
1. Cc1c[nH]c(C=C2C(=O)NN=C2C2CC2)c1
2. COc1ccc(CC2=NNC(=O)C2=Cc2c[nH]c3ncccc23)cc1
3. O=C1NN=C([C@@H]2C[C@H]2c2ccccc2)C1=Cc1ccc[nH]1 (relative stereo)
4. Cc1[nH]c(C=C2C(=O)NN=C2OC(C)C)c(C)c1CN1CCOCC1
5. O=C1NN=C([C@@H]2C[C@H]2c2ccccc2)C1=Cc1c[nH]c2ccccc12 (relative stereo)

Result ::
1. 212 to 215 °C
2. 273 to 276 °C
3. 173 to 175 °C
4. 162 to 164 °C
5. 280 to 282 °C

Batch lookup, melting point per entry.
1. Cc1cc(C(C)C)c(C=C2C(=O)NN=C2c2cnccn2)[nH]1
2. CC1(C)C(C2=NNC(=O)C2=Cc2c[nH]c3ccccc23)C1(C)C
3. COc1ccc(CCC2=NNC(=O)C2=Cc2ccc[nH]2)cc1
4. COc1ccc(OCC2=NNC(=O)C2=Cc2ccc[nH]2)cc1
5. O=C1NN=C(COc2ccccc2)C1=Cc1ccc[nH]1
6. O=C1NN=C(C2CC2)C1=Cc1c[nH]c2ncccc12
7. O=C1NN=C(c2cnccn2)C1=Cc1cc(CN2CCC(Cc3ccccc3)CC2)c[nH]1

Result ::
["244 °C", "296 to 298 °C", "137 to 139 °C", "177 to 180 °C", "163 to 165 °C", "245 to 246 °C", "211 to 214 °C"]

For each of the items listed, what is its melting point?
1. Cc1cccc2c(C=C3C(=O)NN=C3CCc3ccccc3)c[nH]c12
2. CCOC(=O)CC1=NNC(=O)C1=Cc1ccc[nH]1
3. O=C1NN=C(c2c[nH]c3ccccc23)C1=Cc1ccc[nH]1

Result ::
302 to 304 °C
124 to 126 °C
300 to 305 °C

Below is a list of compounds. For each, state its recorded melting point.
1. O=C1NN=C(c2ccc[nH]2)C1=Cc1ccc[nH]1
2. Cc1[nH]c(C=C2C(=O)NN=C2C2CC2)c(C)c1C(=O)O
3. COc1ccc(NC2=NNC(=O)C2=Cc2ccc[nH]2)cc1
4. COC(=O)CCC1=NNC(=O)C1=Cc1c[nH]c2ccccc12

Result ::
1. 245 to 247 °C
2. 312 °C (dec.)
3. 288 to 290 °C
4. 267 to 269 °C

Hey, quick one: what's melting point for each of these?
1. Cc1cc(C)c(C=C2C(=O)NN=C2c2nc3ccccc3s2)[nH]1
2. O=C1NN=C(c2ccccc2)C1=Cc1cc2ccccc2[nH]1
3. Cn1cc(C=C2C(=O)NN=C2C2CC2)c2ccc(C(=O)O)cc21
4. O=C1NN=C(C2CC2)C1=Cc1cn(CCCCO)c2ccccc12
5. Cc1[nH]c(C=C2C(=O)NN=C2c2cnccn2)c(C)c1CN1CCOCC1
6. CCOC(=O)CC1=NNC(=O)C1=Cc1c[nH]c2ccccc12

Result ::
1: 295 to 297 °C; 2: 210 to 211 °C; 3: 237 to 240 °C (dec.); 4: 215 to 216 °C; 5: 274 to 277 °C; 6: 235 to 237 °C

Consider the following items and state reported melting point for each.
1. Cc1c[nH]c(C=C2C(=O)NN=C2CCc2ccc(N)cc2)c1
2. CCOC1=NNC(=O)C1=Cc1cc(Br)c[nH]1
3. Cc1[nH]c(C=C2C(=O)NN=C2OC(C)C)c(C)c1CN(C)C
4. Cc1ccc(CC2=NNC(=O)C2=Cc2ccc[nH]2)cc1
5. O=C1NN=C(COc2cccc(Cl)c2)C1=Cc1c[nH]c2ccccc12
6. O=C1NN=C(CCc2ccc([N+](=O)[O-])cc2)C1=Cc1ccc[nH]1
7. Cn1cc(C=C2C(=O)NN=C2N)c2ccccc21
8. CCc1c(C)[nH]c(C=C2C(=O)NN=C2C2CC2)c1C

Result ::
178 to 180 °C
242 to 244 °C
173 to 175 °C
254 to 255 °C
265 to 268 °C
224 to 226 °C
246 to 247 °C
206 to 210 °C
